Type: in vivo, human
condition info: human, plasma, po, Cmax, mean (SD), healthy subjects; single 90 mg oral brigatinib + gemfibrozil 600 mg BID (test); n = 19
assay readout: Cmax (ng/mL)
Give the value, in units of ng/mL, as a plain number.

Noted for `COc1cc(N2CCC(N3CCN(C)CC3)CC2)ccc1Nc1ncc(Cl)c(Nc2ccccc2P(C)(C)=O)n1` : its Cmax reads 210

---

procedure details: Rifampin DDI arm: single-dose brigatinib plasma PK with and without rifampin
Type: in vivo, human
condition info: human, plasma, po, Cmax, mean (SD), healthy subjects; single 180 mg oral brigatinib + rifampin 600 mg QD (test); n = 19
assay readout: Cmax (ng/mL)
Give the value, in units of ng/mL, as a plain number.

Value of measured Cmax for the entry COc1cc(N2CCC(N3CCN(C)CC3)CC2)ccc1Nc1ncc(Cl)c(Nc2ccccc2P(C)(C)=O)n1 [brigatinib, Brigatinib] : 347

---

Assay type: in vivo, human
condition info: human, plasma, po, 90 mg, AUC0‐120, geometric mean (% CV), healthy subjects; single 90 mg oral brigatinib alone (reference); n = 20
assay readout: AUC (ng·h/mL)
Quick reminder: number only, in ng·h/mL, skip the unit.

So, `COc1cc(N2CCC(N3CCN(C)CC3)CC2)ccc1Nc1ncc(Cl)c(Nc2ccccc2P(C)(C)=O)n1` ? Its AUC was 6490

---

Type: in vivo, human
condition info: human, plasma, po, Cmax, geometric mean (% CV), healthy subjects; single 90 mg oral brigatinib + itraconazole 200 mg BID (test); n = 20
assay readout: Cmax (ng/mL)
Dear colleague, please return just the value in ng/mL, with no unit written.

Measured Cmax of `COc1cc(N2CCC(N3CCN(C)CC3)CC2)ccc1Nc1ncc(Cl)c(Nc2ccccc2P(C)(C)=O)n1` : 401

---

procedure details: Rifampin DDI arm: single-dose brigatinib plasma PK with and without rifampin
Assay type: in vivo, human
condition info: human, plasma, po, 180 mg, Cmax, geometric mean (% CV), healthy subjects; single 180 mg oral brigatinib alone (reference); n = 20
assay readout: Cmax (ng/mL)
Note: unit ng/mL is implicit; provide only the numeric part.

// field: Cmax; key: `COc1cc(N2CCC(N3CCN(C)CC3)CC2)ccc1Nc1ncc(Cl)c(Nc2ccccc2P(C)(C)=O)n1` ; value = 826

---

Assay type: in vivo, human
condition info: human, plasma, po, 90 mg, AUC0‐inf, mean (SD), healthy subjects; single 90 mg oral brigatinib alone (reference); n = 20
assay readout: AUC (ng·h/mL)
Kindly provide the numeric value in ng·h/mL only, without the unit symbol.

For this molecule ( `COc1cc(N2CCC(N3CCN(C)CC3)CC2)ccc1Nc1ncc(Cl)c(Nc2ccccc2P(C)(C)=O)n1` ), measured AUC is 6710

---

Format: in vivo, human
condition info: human, plasma, po, 90 mg, AUC0‐120, mean (SD), healthy subjects; single 90 mg oral brigatinib alone (reference); n = 20
assay readout: AUC (ng·h/mL)
// note: answer is a bare numeric in ng·h/mL

Reported AUC of `COc1cc(N2CCC(N3CCN(C)CC3)CC2)ccc1Nc1ncc(Cl)c(Nc2ccccc2P(C)(C)=O)n1` : 6380

---

procedure details: Rifampin DDI arm: single-dose brigatinib plasma PK with and without rifampin
Format: in vivo, human
condition info: human, plasma, po, t½, mean (SD), healthy subjects; single 180 mg oral brigatinib + rifampin 600 mg QD (test); n = 19
assay readout: half-life (h)
Quick reminder: number only, in h, skip the unit.

Briefly, half-life measured for `COc1cc(N2CCC(N3CCN(C)CC3)CC2)ccc1Nc1ncc(Cl)c(Nc2ccccc2P(C)(C)=O)n1` : 23.7
